// reported Kd per item
Biological target: T1, EGFRvIII extracellular domain (EGFR (1-29)-G-(298-645)-LESRGPF-Myc-NMHTG-6His) (human, UniProt P00533 298-641)
T1 construct: also called recombinant EGFRvIII; not shown: Myc tag
Assay: SPR (Biacore), antibody captured via anti-human Fc, antigen injected
Protocol: Biacore analysis was performed using a Biacore T100 with a CM5 sensory chip, and test antibodies were captured via anti-human Fc antibodies that were amino coupled to the chip using a standard amine coupling kit according to manufacturer's instructions (GE healthcare). […] The Biacore T100 is a surface plasmon resonance based biosensor for detecting, characterizing and quantifying bimolecular interactions, including the interactions between an antibody and its antigen. […]
# output: bare number, implied unit nM

Worked set:
Binder	Kd / nM
Antibody C (AbC) (antibody, V domains shown, Full length IgG1) VH: EVQLQESGPGLVKPSQTLSLTCTVSGYSISSDFAWNWIRQPPGKGLEWMGYISYSGNTRYQPSLKSRITISRDTSKNQFFLKLNSVTAADTATYYCVTAGRGFPYWGQGTLVTVSS VL: DIQMTQSPSSMSVSVGDRVTITCHSSQDINSNIGWLQQKPGKSFKGLIYHGTNLDDGVPSRFSGSGSGTDYTLTISSLQPEDFATYYCVQYEQFPWTFGGGTKLEIK	3.6
Antibody O (AbO) (antibody, V domains shown, Full length IgG1; also called Antibody 0) VH: EVQLQESGPGLVKPSQTLSLTCTVSGYSIGKDFAWNWIRQPPGKGLEWMGYISYNGNTRYQPSLKSRITISRDTSKNQFFLKLNSVTAADTATYYCVTASRGFPYWGQGTLVTVSS VL: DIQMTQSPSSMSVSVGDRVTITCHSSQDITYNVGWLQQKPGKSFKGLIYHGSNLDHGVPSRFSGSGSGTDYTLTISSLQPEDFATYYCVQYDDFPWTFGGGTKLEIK	0.27
Antibody G (AbG) (antibody, V domains shown, Full length IgG1) VH: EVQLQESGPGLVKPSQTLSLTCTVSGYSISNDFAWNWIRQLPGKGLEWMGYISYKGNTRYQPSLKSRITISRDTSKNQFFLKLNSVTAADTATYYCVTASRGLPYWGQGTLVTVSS VL: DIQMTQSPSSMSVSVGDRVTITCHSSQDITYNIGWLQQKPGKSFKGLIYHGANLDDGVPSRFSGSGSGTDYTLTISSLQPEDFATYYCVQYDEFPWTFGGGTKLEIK	0.2
Antibody B (AbB) (antibody, V domains shown, Converted from scFv into a full length IgG1 antibody) VH: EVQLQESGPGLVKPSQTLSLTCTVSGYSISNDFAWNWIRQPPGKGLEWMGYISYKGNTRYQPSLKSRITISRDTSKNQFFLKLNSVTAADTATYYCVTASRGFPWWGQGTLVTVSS VL: DIQMTQSPSSMSVSVGDRVTITCHSSQDINSNIGWLQQKPGKSFKGLIYHGTNLDDGVPSRFSGSGSGTDYTLTISSLQPEDFATYYCVQYAQFPWTFGGGTKLEIK	2.2

Then this binder:
Query: What value of Kd has been reported for the following binder? Antibody H (AbH) (antibody, V domains shown, Full length IgG1) VH: EVQLQESGPGLVKPSQTLSLTCTVSGYSIGKDFAWNWIRQPPGKGLEWMGYISYNGNTRYQPSLKSRITISRDTSKNQFFLKLNSVTAADTATYYCVTASRGLPYWGQGTLVTVSS VL: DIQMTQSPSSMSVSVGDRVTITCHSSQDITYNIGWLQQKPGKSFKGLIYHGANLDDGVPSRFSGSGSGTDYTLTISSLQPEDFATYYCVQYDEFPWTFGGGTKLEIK
Response: 0.15
